Every entry's value here was drawn from patent EP4813381A1.

Could you please report measured Release rate for the items listed next?
# experiment: Conversion rate of salt-form prodrugs to parent compound in HEPES buffer solution
# Format: physicochemical
# conditionInfo: conversion to Compound 1, HEPES buffer pH 7.4, 37 °C, 1 h
One number for each entry, in %.

Before answering, review these 6 worked examples.
{"columns": ["compound", "unitTag", "Release rate"],
 "data": [
  ["CCCCN(CCCC)C[C@@H]1C(=O)O[C@H]2[C@H]1CC[C@@]1(C)C[C@]13CC[C@@](C)(O)[C@H]23 [compound 30]", "%", 6.6],
  ["CN(C)C[C@@H]1C(=O)O[C@H]2[C@H]1CC[C@@]1(C)C[C@]13CC[C@@](C)(O)[C@H]23 [compound 21]", "%", 3.3],
  ["C[C@@]12CC[C@@H]3[C@H](OC(=O)[C@H]3CN3CC4CCCC4C3)[C@@H]3[C@]1(CC[C@@]3(C)O)C2 (stereo partly shown) [compound 32]", "%", 6.9],
  ["CCCN(CCC)C[C@@H]1C(=O)O[C@H]2[C@H]1CC[C@@]1(C)C[C@]13CC[C@@](C)(O)[C@H]23 [compound 29]", "%", 6.8],
  ["CCN(CC)C[C@@H]1C(=O)O[C@H]2[C@H]1CC[C@@]1(C)C[C@]13CC[C@@](C)(O)[C@H]23 [compound 28]", "%", 6.8],
  ["C[C@@]12CC[C@@H]3[C@H](OC(=O)[C@H]3CN3CCC4(CC3)CC4)[C@@H]3[C@]1(CC[C@@]3(C)O)C2 [compound 37]", "%", 7.2]
]}

Attention now turns to another entry.
Tell me the measured Release rate of C[C@@]12CC[C@@H]3[C@H](OC(=O)[C@H]3CN3CCNCC3)[C@@H]3[C@]1(CC[C@@]3(C)O)C2 [compound 26] , please.
6.8
